tested on: LOC_OS04G57630-cb004; assay: thermal shift delta Tm vs DMSO control; higher = stronger stabilization (binding); conditions: 12.5 µM; protein concentration 2 µM;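 also: purified Escherichia coli-expressed rice kinase domain construct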
Could you please classify the records by thermal shift delta Tm using these ranges: low band: < 0.2 °C; middle band: ≥ 0.2 °C and < 1 °C; high band: ≥ 1 °C

Record excerpt, results attached:
compound=Nc1cccc(-c2cc3c(Oc4cccc(O)c4)ncnc3[nH]2)c1 class_label="high band"
compound=Cc1cc2c(F)c(Oc3ncnn4cc(OC[C@@H](C)OC(=O)[C@H](C)N)c(C)c34)ccc2[nH]1 class_label="low band"
compound=O=C1NC(=O)C(c2ccccc2[N+](=O)[O-])=C1Nc1ccc(O)c(Cl)c1 class_label="low band"
compound=COC1(c2sc3c(N4CCOCC4)nc(-c4cnc(N)nc4)nc3c2C)COC1 class_label="middle band"
compound="C[C@@H]1CN(C(=O)c2ccc(NC(=O)c3cc(O[C@H](C)c4c(Cl)ccc(F)c4Cl)c(N)nn3)cc2)C[C@H](C)N1 [Ensartinib (X-396)]" class_label="high band"

Incoming: Band of CC(C)(C#N)c1ccc(N2C(=O)OCc3cnc4ccc(-c5cnc6ccccc6c5)cc4c32)cc1 ?
Outgoing: low band

Incoming: Band of Cc1ccc(NC(=O)Nc2cc(C(F)(F)F)ccc2F)cc1Nc1ccc2c(c1)NC(=O)/C2=C\c1ccc[nH]1 ?
Outgoing: middle band

Incoming: Band of C=CC(=O)N1CC[C@@H](Oc2nc(Nc3ccc(N4CCC(N5CCN(C)CC5)CC4)cc3)c(C(N)=O)nc2CC)C1 [Naquotinib(ASP8273)] ?
Outgoing: high band

Incoming: Band of CN(c1ccccc1CNc1nc(Nc2ccc3c(c2)CC(=O)N3)ncc1C(F)(F)F)S(C)(=O)=O ?
Outgoing: high band

Incoming: Band of COc1ccccc1-c1cc(Nc2cccc(CS(N)(=O)=O)c2)ncn1 ?
Outgoing: middle band

Incoming: Band of CCCCCCCCCCCCCCCCCCOP(=O)([O-])OC1CC[N+](C)(C)CC1 [Perifosine (KRX-0401)] ?
Outgoing: low band

Incoming: Band of CC(C)(C)c1cnc(CSc2cnc(NC(=O)C3CCNCC3)s2)o1 ?
Outgoing: low band

---

system: LOC_OS07G06570-cb004; experiment: thermal shift delta Tm vs DMSO control; higher = stronger stabilization (binding); details: 12.5 µM; protein concentration 2 µM
Counter-ions that a name gives are not always drawn.
Metric: thermal shift delta Tm (°C)
Kindly provide the numeric value in °C only, without the unit symbol.

Reference set, count: 3
compound=CC[C@@H](N)CNc1ccnc(-c2cc(-c3cnn(C)c3)ccc2O)n1 result_value=0.8
compound="CNC(=O)c1cc(Oc2ccc(NC(=O)Nc3ccc(Cl)c(C(F)(F)F)c3)cc2)ccn1 [Sorafenib Tosylate]" result_value=1.66
compound=Cc1c(CN2CCN(C(=O)[C@H](C)O)CC2)sc2c(N3CCOCC3)nc(-c3cnc(N)nc3)nc12 result_value=0.61

Turning now to a further compound:
Value of thermal shift delta Tm reported for the compound COCCNCc1ccc(-c2cc3nccc(Oc4ccc(NC(=O)C5(C(=O)Nc6ccc(F)cc6)CC5)cc4F)c3s2)nc1 is 0.67

---

tested on: LOC_OS02G14120-cb001; test: thermal shift delta Tm vs DMSO control; higher = stronger stabilization (binding); conditions: 12.5 µM; protein concentration 2 µM
Use 3 °C as the dividing line for thermal shift delta Tm, with the line itself on the Satisfied side and lower values as Not satisfied.

Record excerpt, results attached:
compound=Cc1ccc(Nc2nccc(N(C)c3ccc4c(C)n(C)nc4c3)n2)cc1S(N)(=O)=O class_label=Satisfied
compound=COc1ccc(-c2ccc3ncc4c(c3c2)n(-c2ccc(N3CCNCC3)c(C(F)(F)F)c2)c(=O)n4C)cn1 class_label=Satisfied
compound="CO[C@H]1C[C@@H]2CC[C@@H](C)[C@@](O)(O2)C(=O)C(=O)N2CCCC[C@H]2C(=O)O[C@H]([C@H](C)C[C@@H]2CC[C@@H](OCCO)[C@H](OC)C2)CC(=O)[C@H](C)/C=C(\\C)[C@@H](O)[C@@H](OC)C(=O)[C@H](C)C[C@H](C)/C=C/C=C/C=C/1C [Everolimus (RAD001)]" class_label="Not satisfied"
compound=COc1ncc(-c2cc(-c3ncc(CN4C[C@@H](C)O[C@@H](C)C4)o3)c3cn[nH]c3c2)cc1NS(C)(=O)=O class_label="Not satisfied"
compound=Cc1ccc(F)c(NC(=O)Nc2ccc(-c3cccc4[nH]nc(N)c34)cc2)c1 class_label=Satisfied

Incoming: Hello, I need to know if CNC(=O)c1nn(C)c2c1C(C)(C)Cc1cnc(Nc3ccc(N4CCN(C)CC4)cc3)nc1-2 has measured thermal shift delta Tm not below 3 °C. Thanks!
Outgoing: Satisfied

Incoming: Hello, I need to know if CN(C)Cc1cccc(N=C(c2ccccc2)c2c(O)[nH]c3cc(C(=O)N(C)C)ccc23)c1 has measured thermal shift delta Tm not below 3 °C. Thanks!
Outgoing: Not satisfied

Incoming: Hello, I need to know if COc1cc2ncnc(Nc3cccc(Cl)c3F)c2cc1OC(=O)N1CCN(C)C[C@H]1C has measured thermal shift delta Tm not below 3 °C. Thanks!
Outgoing: Not satisfied

Incoming: Hello, I need to know if COc1cc2ncnc(Oc3cccc(NC(=O)Nc4cc(C(C)(C)C(F)(F)F)on4)c3)c2cc1OC has measured thermal shift delta Tm not below 3 °C. Thanks!
Outgoing: Not satisfied

Incoming: Hello, I need to know if NC(=O)c1ncn([C@@H]2O[C@H](CO)[C@@H](O)[C@H]2O)c1N has measured thermal shift delta Tm not below 3 °C. Thanks!
Outgoing: Not satisfied

---

tested on: LOC_OS01G51400-cb002; test: thermal shift delta Tm vs DMSO control; higher = stronger stabilization (binding); details: 12.5 µM; protein concentration 2 µM
Could you please classify the records by thermal shift delta Tm using these ranges: interval 1 (below 0.2 °C), interval 2 (0.2 °C to below 0.5 °C), interval 3 (0.5 °C or more)

Incoming: Band of CCS(=O)(=O)N1CCN(c2ccc(Nc3ncc(C(N)=O)c(NC4CC4)n3)cc2)CC1 ?
Outgoing: interval 3

Incoming: Band of CCOc1cn(-c2ccc(F)cc2C)nc1C(=O)Nc1ccc(Oc2ccnc3cc(OC)c(OC)cc23)c(F)c1 ?
Outgoing: interval 2

Incoming: Band of COc1cc2nccc(Oc3ccc(NC(=O)Nc4cc(C)on4)c(Cl)c3)c2cc1OC ?
Outgoing: interval 1

Incoming: Band of COc1ccc(S(=O)(=O)N(CCO)c2ccccc2CN(C)C/C=C/c2ccc(Cl)cc2)cc1 [KN-93 Phosphate] ?
Outgoing: interval 2

Incoming: Band of COC1(c2sc3c(N4CCOCC4)nc(-c4cnc(N)nc4)nc3c2C)COC1 ?
Outgoing: interval 1

Incoming: Band of COc1cc2ncnc(Nc3cccc(Cl)c3)c2cc1OC ?
Outgoing: interval 1

Incoming: Band of CS(=O)(=O)c1cccc(CNc2nc(Nc3ccc4c(c3)CCC(=O)N4)ncc2C(F)(F)F)c1 ?
Outgoing: interval 3

Incoming: Band of Cc1ccc(C(=O)Nc2cccc(C(F)(F)F)c2)cc1Nc1nc(-c2cccnc2)nc2c1cnn2C ?
Outgoing: interval 3

Incoming: Band of CCC(=O)Nc1cccc(Oc2nc(Nc3ccc(N4CCN(C)CC4)cc3OC)ncc2Cl)c1 ?
Outgoing: interval 2

Incoming: Band of CCCCOc1c(C(=O)c2c(F)cc(C)cc2F)c[nH]c2nncc1-2 ?
Outgoing: interval 1

---

system: LOC_OS03G04050-cb001; test: thermal shift delta Tm vs DMSO control; higher = stronger stabilization (binding); conditions: 12.5 µM; protein concentration 2 µM
Metric: thermal shift delta Tm (°C)
Kindly provide the numeric value in °C only, without the unit symbol.

Reference set, count: 5
compound=Cc1cnc(Nc2ccc(N3CCN(C)CC3)cc2)nc1Nc1cccc(S(=O)(=O)NC(C)(C)C)c1 metric="thermal shift delta Tm" result_value=0.74
compound=CCc1cccc(CC)c1NC(=O)N1Cc2[nH]nc(NC(=O)c3ccc(N4CCN(C)CC4)cc3)c2C1 metric="thermal shift delta Tm" result_value=0.29
compound=Nc1nc(N)c(N=O)c(OCC2CCCCC2)n1 metric="thermal shift delta Tm" result_value=0.46
compound=Nc1cc(C(F)(F)F)c(-c2cc(N3CCOCC3)nc(N3CCOCC3)n2)cn1 metric="thermal shift delta Tm" result_value=0.3
compound="CCCCNc1ncc(-c2ccc(CN3CCOCC3)cn2)c(NC2CCC(O)CC2)n1 (stereo not given)" metric="thermal shift delta Tm" result_value=0.34

Turning now to a further compound:
Value of thermal shift delta Tm reported for the compound Cc1ccc(C(=O)Nc2cccc(C(F)(F)F)c2)cc1Nc1nc(-c2cccnc2)nc2c1cnn2C is 0.36

---

system: LOC_OS03G50810-cb003; assay: thermal shift delta Tm vs DMSO control; higher = stronger stabilization (binding); details: 12.5 µM; protein concentration 2 µM
# reported thermal shift delta Tm; entries follow
Kindly provide the numeric value in °C only, without the unit symbol.

Value of thermal shift delta Tm reported for the compound CC(C)n1nc(-c2cc3cc(O)ccc3[nH]2)c2c(N)ncnc21 is 0.71

Value of thermal shift delta Tm reported for the compound O=C1NC(=O)C(=Cc2ccc(-c3ccc(F)cc3)o2)S1 (stereo in doubt) is 0.29

Value of thermal shift delta Tm reported for the compound O=C(Nc1ccc(OC(F)(F)F)cc1)c1sccc1NCc1ccnc2ccccc12 is 0.48

Value of thermal shift delta Tm reported for the compound CCCCCCCCCC(=O)CC(O)S(=O)(=O)O (centres undefined) [Sodium Houttuyfonate] is 0.37
